experiment: folding stability dG unfold (combined trypsin and chymotrypsin); higher = more stable
Measured attribute: folding stability dG unfold

{"Sequence": "SAGGSAGGMTIEEKAEELEEELKKKYPDMEVKVEVDPEKGIVKITITDPKNPGKTTELTFPVEESAGGSAGG [r6_478_JUSTAS]", "folding stability dG unfold": "3.36 kcal/mol"}
{"Sequence": "SAGGSAGGSANMPPEELADWIADKFQQRHGHPVKEIEVEHDPENNNYTITVEFDDKERTITLSAGGSAGGSA [r18_145_TrROS]", "folding stability dG unfold": "0.591 kcal/mol"}
{"Sequence": "SAGGSAGGSAGGMALIKLPNGEVQPVKIKAIDPDGNILVEPENSEWQTFSFDGLEIIPLPSAGGSAGGSAGG [r7_823_TrMRF]", "folding stability dG unfold": "0.886 kcal/mol"}
{"Sequence": "SAGGSAGGSAGGSMTLKVTLTPPSGEVVEFEITEEELDKLKEELPEDWSISTEPIPELESAGGSAGGSAGGS [r4_63_JUSTAS]", "folding stability dG unfold": "2.29 kcal/mol"}

The reported folding stability dG unfold of the sequence SAGGSAGGMVKLKVYKIPESVPPELRALLEALVEGEGEVEVEPEEAEALLKLPGIEELEVEELESAGGSAGG [r6_381_TrMRF] was 1.59 kcal/mol

Summary for this sequence, SAGGSAGGSTLKLEIVNEDGYKVEIEAELELVEKDGKLVLKLKVKIKVEPAKEVKEVKVELPESAGGSAGGS [r12_581_TrROS_Hall] : folding stability dG unfold is 3.45 kcal/mol

The value of folding stability dG unfold measured for the sequence SASPDAPVEVVVSLRELRERIEAEHPGRPVTPEDVAALAREELEAAGRPLEDLRVEAVDEATGTVRLVASAG [r14_303_JUSTAS] turned out to be 0.907 kcal/mol

// sample SAGGSAGGSKPGKPREIMIPFPDNWFMSIRVWPGRIEIENPDNGKEFEIPIGAPIEIELFPLDSAGGSAGGS [r12_227_TrROS] , its folding stability dG unfold was 1.89 kcal/mol

The origin of these recorded values is the supplement of paper PMC12764529.
